# MEASUREMENT_TARGET: T1, human GIP receptor (human, UniProt P48546 22-466)
# T1 construct: whole, on cells; also called hGIPR; human glucose-dependent insulinotropic polypeptide receptor
# T1 sequence (looked up): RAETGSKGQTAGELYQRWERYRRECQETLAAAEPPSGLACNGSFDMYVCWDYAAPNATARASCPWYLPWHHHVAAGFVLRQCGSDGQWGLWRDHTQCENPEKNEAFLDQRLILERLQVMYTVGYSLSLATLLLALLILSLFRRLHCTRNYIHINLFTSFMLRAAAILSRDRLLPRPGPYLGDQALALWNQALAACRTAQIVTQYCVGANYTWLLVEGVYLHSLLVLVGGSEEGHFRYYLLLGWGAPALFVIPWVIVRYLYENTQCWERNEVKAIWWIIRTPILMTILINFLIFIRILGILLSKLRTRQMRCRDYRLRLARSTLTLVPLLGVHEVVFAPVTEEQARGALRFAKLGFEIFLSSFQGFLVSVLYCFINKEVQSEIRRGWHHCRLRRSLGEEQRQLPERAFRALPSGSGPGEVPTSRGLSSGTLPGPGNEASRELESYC
# ASSAY_INFO: SPA competition vs [125I]-GIP, hGIPR membranes
Collected Ki values appear next to each entry.
PARAMETER: Ki (nM)

BINDER	VALUE
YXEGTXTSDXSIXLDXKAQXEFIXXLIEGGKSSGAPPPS (Aib2, αMeF(2F)6, 4Pal10, αMeL13, Orn16, K17(Z1), Aib20, D-Glu24, αMeY25, K31(Z1), C-term NH2; Z1=AEEA-(γ-Glu)-CO-(CH2)12-CO2H)	0.0508
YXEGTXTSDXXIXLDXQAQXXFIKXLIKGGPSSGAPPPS (Aib2, αMeF(2F)6, 4Pal10, Aib11, αMeL13, Orn16, Aib20, Orn21, K24(Z1), αMeY25, K28(Z1), C-term NH2; Z1=AEEA2-(γ-Glu)2-(10-(4-carboxyphenoxy)decanoyl))	0.0294
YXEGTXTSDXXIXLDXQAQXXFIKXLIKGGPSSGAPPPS (Aib2, αMeF(2F)6, 4Pal10, Aib11, αMeL13, Orn16, Aib20, Orn21, K24(Z1), αMeY25, K28(Z1), C-term NH2; Z1=PEG6-(γ-Glu)-(10-(4-carboxyphenoxy)decanoyl))	0.0291
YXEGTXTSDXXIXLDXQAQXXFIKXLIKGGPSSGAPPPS (Aib2, αMeF(2F)6, 4Pal10, Aib11, αMeL13, Orn16, Aib20, Orn21, K24(Z1), αMeY25, K28(Z1), C-term NH2; Z1=AEEA-(γ-Glu)-(10-(4-carboxyphenoxy)decanoyl))	0.0183
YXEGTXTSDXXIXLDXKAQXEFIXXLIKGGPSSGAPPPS (Aib2, αMeF(2F)6, 4Pal10, Aib11, αMeL13, Orn16, K17(Z1), Aib20, D-Glu24, αMeY25, K28(Z1), C-term NH2; Z1=AEEA3-(γ-Glu)-CO-(CH2)10-CH3)	0.0207
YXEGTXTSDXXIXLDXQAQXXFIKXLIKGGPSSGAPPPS (Aib2, αMeF(2F)6, 4Pal10, Aib11, αMeL13, Orn16, Aib20, Orn21, K24(Z1), αMeY25, K28(Z1), C-term NH2; Z1=AEEA-Ahx-(γ-Glu)-CO-(CH2)12-CO2 (so in the source))	0.0133
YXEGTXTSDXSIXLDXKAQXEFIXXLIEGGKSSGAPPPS (Aib2, αMeF(2F)6, 4Pal10, αMeL13, Orn16, K17(Z1), Aib20, D-Glu24, αMeY25, K31(Z1), C-term NH2; Z1=AEEA2-(γ-Glu)-CO-(CH2)10-CH3)	0.0309
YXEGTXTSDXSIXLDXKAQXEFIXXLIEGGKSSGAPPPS (Aib2, αMeF(2F)6, 4Pal10, αMeL13, Orn16, K17(Z1), Aib20, D-Glu24, αMeY25, K31(Z1), C-term NH2; Z1=AEEA2-CO-(CH2)12-CO2H)	0.0557
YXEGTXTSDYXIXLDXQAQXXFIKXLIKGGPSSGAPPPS (Aib2, αMeF(2F)6, Aib11, αMeL13, Orn16, Aib20, Orn21, K24(Z1), αMeY25, K28(Z1), C-term NH2; Z1=AEEA2-(γ-Glu)2-CO-(CH2)12-CO2H)	0.0368
YXEGTXTSDXXIXLDXKAQXGFIXXLIKGGPSSGAPPPS (Aib2, αMeF(2F)6, 4Pal10, Aib11, αMeL13, Orn16, K17(Z1), Aib20, D-Glu24 (printed e), αMeY25, K28(Z1), C-term NH2; Z1=AEEA2-(γ-Glu)-CO-(CH2)10-CH3, G at position 21)	0.0197

Origin of values: patent US20230265151A1
